ASSAY_COMMENT: physchem
APPLIED_CONDITIONS: oil or lipid
OUTCOME_MEASURE: solubility

Q: I am curious: what solubility value has been reported for "CC(=O)O[C@H]1C(=O)[C@@]2(C)[C@H]([C@H](OC(=O)c3ccccc3)[C@]3(O)C[C@H](OC(=O)[C@H](O)[C@@H](NC(=O)c4ccccc4)c4ccccc4)C(C)=C1C3(C)C)[C@]1(OC(C)=O)CO[C@@H]1C[C@@H]2O" ?
Result: ≥ 5 mg/mL
